target: Calmodulin-1 (Homo sapiens) (UniProt P0DP23); experiment: small molecules binding calmodulin-1 with EGTA – biochemical, small-molecule microarray, Cy5-labelled CALM1, profiling panel (AID 1111); details: Cy5-CALM1 binding fluorescence, higher = more signal;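 note: labelled calmodulin applied in Tris saline Tween buffer holding calcium plus EGTA and DTT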
assay metric: composite z-score
Answer using only a numeral; do not append any unit.

# count of solved cases: 7
- CC(C)OC(=O)CC(=O)CC(O)c1cccc([N+](=O)[O-])c1 (stereo not drawn): 0.834
- COCCCNC(=O)[C@@]1(CCC(=O)OC(C)(C)C)COC(c2ccc(OCCCO)cc2)=N1: -0.664
- C[C@@H]1NC(=O)C([C@@H](C)OCc2ccccc2)NC(=O)[C@@]23C(=O)N[C@@H](Cc4ccccc4)C2[C@H](C)[C@@]2(C)O[C@H]2C3/C=C/C/C=C\CNC1=O (stereo partly drawn): -1.17
- COc1ccccc1CN1C(=O)c2ccccc2[C@](Cc2ccccc2I)(C(=O)NCC(C)C)[C@@H]1c1ccc(CO)cc1: -0.313
- NC(=O)N1C(=O)C2C(C1=O)C1C=C(CCCO)C2C(c2ccc(CN3CCCC3)cc2)N1Cc1sc2ccccc2c1Cl (stereo not drawn): 0.302
- CCCC=C(CCC)[C@@H](NC(=O)c1ccc(C(F)(F)F)cc1)c1ccc(C(F)(F)F)cc1: 1.72
- CC(=O)c1ccc(C(O)C2C=CC3C(=O)N(c4ccccc4)C(=O)C3N2Nc2ccc(C(C)C)cc2)cc1 (stereo not drawn): 0.889

## Task I have this compound here, `O=C1C[C@]2(c3ccc([N+](=O)[O-])cc3)C(=O)N(C3CC3)c3cc(CO)ccc3[C@H]2N1C1CCCCC1` , and I need its recorded composite z-score.
## Result -0.301

====

assay: inhibition of PAO1 biofilm formation – strain PAO1, LB-PBS medium, absorbance 600 nm, primary screen (AID 1176); note: test concentration not given here; conditions: P. aeruginosa PAO1 growth/biofilm, A600, 12 h; higher = more signal
assay metric: z-score
Answer using only a numeral; do not append any unit.

# count of solved cases: 5
• C=CC1c2cc(O)c(OC)cc2CCN1C (stereo not drawn) = -0.283
• COc1ccc([Si](C)(C)[C@H]2[C@H](CC(=O)N3CCC[C@H]3CO)O[C@@]3(C(=O)N(Cc4ccc(N5CCCCC5=O)cc4)c4ccccc43)[C@@H]2C)cc1 = -0.012
• O=C1NC(=O)C2C1C=CC(C(O)c1ccc(B(O)O)cc1)N2Nc1ccc(Cl)cc1Cl (stereo not drawn) = 1.29
• C=CCC(OC(C)=O)[C@@H]1[C@@H](N(Cc2cccc3ccccc23)C(=O)Cc2ccc(OC)cc2)c2cc(OCCCO)ccc2N1C(=O)Cc1ccc2ccccc2c1 (stereo partly drawn) = -0.853
• COC(=O)c1cccc([C@H]2OC(=CC(=O)OC(C)C)C[C@@H](c3cccc(C(=O)OC)c3)O2)c1 = 0.188

## Task I have this molecule here, CC(C)C[C@@H]1NC(=O)[C@@]23C(=O)N[C@@H](Cc4ccccc4)C2[C@H](C)[C@@]2(C)O[C@H]2C3/C=C/C/C=C\CNC(=O)CNC1=O (stereo partly drawn) , and I need its recorded z-score.
## Result 0.437

## Task I have this molecule here, `COC(=O)C[C@H]1O[C@@]2(C[C@@H]1[Si](C)(C)C)C(=O)N(C)c1ccccc12` , and I need its recorded z-score.
## Result 0.826

## Task I have this molecule here, `O=C1[C@@H]2[C@@H](CC(COc3ccccc3)=C([C@H](O)CCc3ccccc3)[C@@H]2CO)C(=O)N1Cc1ccccc1` , and I need its recorded z-score.
## Result 0.258

====

experiment: growth effects on S. cerevisiae YJM789 – YJM789 clinical isolate, OD600, 24 h, basal, primary screen (AID 1089); settings: higher = more signal, called active from +8 up or from −8 down;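 note: growth of clinical yeast isolate S. cerevisiae YJM 789 seeded 1000 cells per well; test concentration not given here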
assay metric: z-score
Answer using only a numeral; do not append any unit.

- CC(C)OC(=O)CC(=O)CC(O)c1cccc([N+](=O)[O-])c1 (stereo not drawn): -4.2
- CC(C)c1nc2cc(Br)ccc2c(=O)o1: -0.0363
- O=C1NC(=O)C2C1C=CC(C(O)c1ccc(B(O)O)cc1)N2Nc1ccc(Cl)cc1Cl (stereo not drawn): 1.33
- C=C1C(=O)C=C2CN(C(=O)c3ccccc3)[C@@](Cc3ccc(OC)cc3)(C(=O)OC)[C@@H]12: 0.573

## Task I have this compound here, `COc1ccc([Si](C)(C)[C@@H]2[C@@H](CC(=O)N3Cc4ccccc4C[C@H]3CO)O[C@]3(C(=O)N(Cc4cccc(N5CCOC5=O)c4)c4ccccc43)[C@H]2C)cc1` , and I need its recorded z-score.
## Result -1.45

## Task I have this compound here, `O=C1C=C(c2ccccc2)C(=O)C2=C1CC([C@H]1Oc3ccccc3S(=O)(=O)N3CCC[C@@H]13)=CC2` , and I need its recorded z-score.
## Result -0.418

## Task I have this compound here, CC(C)C(O)C1C=CC2C(=O)NC(=O)C2N1Nc1ccccn1 (stereo not drawn) , and I need its recorded z-score.
## Result 1.02

## Task I have this compound here, `C=CCN1C(=O)[C@]2(O[C@H](CCn3cc([C@H](O)c4ccccc4)nn3)[C@@H]([Si](C)(C)c3ccc(OC)cc3)[C@@H]2C)c2cc(NC(=O)c3ccc(OC)cc3)ccc21` , and I need its recorded z-score.
## Result 0.323

====

molecular target: NADPH oxidase 2 (Homo sapiens); experiment: compounds shifting NOX2 Amplex Red fluorescence – cell-based, HEK293-NOX2, PMA-stimulated, NOX inhibitor project, primary screen (AID 1159); conditions: 45 min, higher = more signal, called active from +8 up or from −8 down; note: test concentration not given here
Active and inactive are the calls of the source.
Recorded z-score, one value per entry.

## Task I have this compound here, `CC(=O)NCCCC[C@@H]1NC(=O)[C@H]2C[C@@H](C(=O)NCCCCCCNC(=O)CS)[C@@H](c3cccc(OCCO)c3)N2C1=O` , and I need its recorded z-score.
## Result 1.6 (inactive)

## Task I have this compound here, `COc1ccc(C(=O)Nc2ccc(CN3C(=O)[C@@]4(O[C@@H](CCn5cc(CCO)nn5)[C@H]([Si](C)(C)c5ccc(OC)cc5)[C@H]4C)c4ccccc43)cc2)cc1` , and I need its recorded z-score.
## Result -1.81 (inactive)

## Task I have this compound here, `C[C@@H]1ON(c2ccc(I)cc2)[C@H](c2cccc(NC(=O)OCC3c4ccccc4-c4ccccc43)c2)[C@H]1C(=O)N1C(=O)OC[C@H]1Cc1ccccc1` , and I need its recorded z-score.
## Result -0.143 (inactive)

====

assay: changes in parasitized red cell lysis, either direction – P. falciparum Indochina, OD700, 3 h, PSAC antagonist project, primary screen (AID 1156); settings: P. falciparum-infected erythrocytes, osmotic lysis, higher = more signal, called active from +8 up or from −8 down
Recorded z-score, one value per entry.
Answer using only a numeral; do not append any unit.

# count of solved cases: 2
- C=C(C)[C@@H]1CC=C(C(O)C2C=CC3C(=O)N(c4ccccc4)C(=O)C3N2Nc2ccc([N+](=O)[O-])cc2)CC1 (some centres not stated): 1.34
- NC(=O)N1C(=O)C2C(C1=O)C1C=C(CCCO)C2C(c2ccc(CN3CCCC3)cc2)N1Cc1sc2ccccc2c1Cl (configuration not stated): 0.363

## Task I have this molecule here, `NC(=O)NCC#Cc1ccc2c(c1)[C@]1(C(=O)N2)[C@H](c2ccc(OCCO)cc2)N2[C@H](c3ccccc3)[C@H](c3ccccc3)OC(=O)[C@H]2[C@@H]1C(=O)NC[C@H](O)c1ccccc1` , and I need its recorded z-score.
## Result -0.88

## Task I have this molecule here, C=CCC(OC(C)=O)[C@@H]1[C@@H](N(Cc2ccc(-c3ccccc3)cc2)C(=O)c2cccc3ccccc23)c2cc(OCCCO)ccc2N1C(=O)Cc1ccc(OC)cc1 (some centres not stated) , and I need its recorded z-score.
## Result 0.375

## Task I have this molecule here, `O=C(NC1CC1)[C@@H]1c2ccccc2C(=O)N(Cc2cc(C(F)(F)F)cc(C(F)(F)F)c2)[C@H]1c1ccc(CO)cc1` , and I need its recorded z-score.
## Result 1.12

## Task I have this molecule here, `COC(=O)[C@H](Cc1ccccc1)N1CC2=CCCC=C[C@@H]2[C@H]1[C@H](O)Cc1ccccc1` , and I need its recorded z-score.
## Result 0.429

## Task I have this molecule here, `CCOC(=O)C[C@H]1[C@H](OC(=O)c2ccccc2-c2ccccc2)[C@@H](NC(=O)c2ccc3ccccc3c2)c2cc(OCCCO)ccc2N1C(=O)Cc1ccc(OC)cc1` , and I need its recorded z-score.
## Result -0.681

====

assay: probe aLAP1 signal on lysate-treated microarray – cell lysate, small-molecule microarray, COS7 lysate, primary screen (AID 1124); details: probe aLAP1, fluorescence, higher = more signal;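 note: lysate comes from COS7 cells expressing LAP1 and is applied at 0.3 µg/mL; score merges spot fluorescence near 667 nm with signal-to-noise over triplicate slides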
Lab note: anything with composite z-score at or over 0.4 counts as yes (1); the rest go in no (0).

Here's what some known entries look like.
• COc1cc(CO)cc(I)c1O[C@H]1C=C(C(=O)NCCO)C[C@@H](NC2CCCCCC2)[C@@H]1O = yes (1)
• O=C(NCCN1CCOCC1)[C@@H]1c2ccccc2C(=O)N(Cc2ccc(OC(F)(F)F)cc2)[C@H]1c1ccc(CO)cc1 = no (0)
• NC(=O)N1C(=O)C2C(C1=O)C1C=C(CCCO)C2C(c2ccc(CN3CCCC3)cc2)N1Cc1cc2c(cc1Br)OCO2 (configuration not stated) = no (0)

Below: the item to evaluate.
## Task Please indicate if the recorded composite z-score for `COCCOC(=O)N1C(=O)[C@@]2(c3cc(C#CCCO)ccc31)[C@H](c1ccccc1OCCO)N1[C@H](c3ccccc3)[C@H](c3ccccc3)OC(=O)[C@H]1[C@@H]2C(N)=O` meets or exceeds 0.4.
## Result no (0)
